# credit: patent US12077483B2

PROTOCOL: Tolerability in rats: liver enzyme panel 24 hours post dose
Format: in vivo, rat
MEASUREMENT CONTEXT: Sprague Dawley female rats, 6 mg/kg, serum
Consider the following molecules and their measured AST (U/L) readings.

* CCCCC/C=C\C/C=C\CCCCCCCC(=O)OCC(COC(=O)CCCCCCC/C=C\C/C=C\CCCCC)OC(=O)CCC(CCCCCC)OC(=O)NCCN1CCCC1 (racemic) | 820.8 U/L
* CCCCC/C=C\C/C=C\CCCCCCCC(=O)OCC(COC(=O)CCC(OCCCCCCCC)OCCCCCCCC)COC(=O)OCCCN(CC)CC (stereo not shown) [Compound 49, reference compound] | 534.8 U/L
* CCCCC/C=C\C/C=C\CCCCCCCC(=O)OCC(COC(=O)CCCCCCC/C=C\C/C=C\CCCCC)OC(=O)CCC(CCCCCC)OC(=O)OCCCN1CCCC1 (stereo not shown) | 681 U/L

Field: next molecule
# input molecule: CCCCC/C=C\C/C=C\CCCCCCCC(=O)OCC(COC(=O)CCCCCCC/C=C\C/C=C\CCCCC)OC(=O)CCC(CCCCCCCC)OC(=O)NCCN(C)CC (stereo not shown) ; wanted: its AST (U/L) 349.6 U/L

====

Consider the following compounds and their measured Z-Ave Size (nm) readings.
PROTOCOL: LNP average particle size and polydispersity by dynamic light scattering
Assay type: physicochemical
MEASUREMENT CONTEXT: LNP with the compound as amine lipid; Expt. 4; composition ratio (mol %) 50/9/38/3 for Cmpnd 49, 50/10/38.5/1.5 for the others
Description: The LNPs have a size of about 1 to about 1,000 nm, about 10 to about 500 nm, about 20 to about 500 nm, in a sub-embodiment about 50 to about 400 nm, in a sub-embodiment about 50 to about 300 nm, in a sub-embodiment about 50 to about 200 nm, and in a sub-embodiment about 50 to about 150 nm, and in another sub-embodiment about 60 to about 120 nm. […] The average sizes (diameters) of the fully formed LNP, may be measured by dynamic light scattering on a Malvern Zetasizer. […]
The response must be a number in nm with no trailing unit.

# input compound: CCCCC/C=C\C/C=C\CCCCCCCC(=O)OCC(COC(=O)CCCCCCC/C=C\C/C=C\CCCCC)OC(=O)CCC(CCCCCC)OC(=O)NCCN(C)CC (stereo not drawn) ; wanted: its Z-Ave Size (nm) 101.10

# input compound: CCCCC/C=C\C/C=C\CCCCCCCC(=O)OCC(COC(=O)CCC(OCCCCCCCC)OCCCCCCCC)COC(=O)OCCCN(CC)CC (stereo not drawn) [Compound 49, reference compound] ; wanted: its Z-Ave Size (nm) 81.83

# input compound: CCCCC/C=C\C/C=C\CCCCCCCC(=O)OCC(COC(=O)CCCCCCC/C=C\C/C=C\CCCCC)OC(=O)CCC(CCCCCCCCCC)OC(=O)NCCN(C)CC (stereo not drawn) ; wanted: its Z-Ave Size (nm) 89.83

====

PROTOCOL: LNP average particle size and polydispersity by dynamic light scattering
Format: physicochemical
MEASUREMENT CONTEXT: LNP with the compound as amine lipid; Expt. 3; composition ratio (mol %) 50/9/38/3 for Cmpnd 49, 50/10/38.5/1.5 for the others
Consider the following compounds and their measured Num Ave Size (nm) readings.
The response must be a number in nm with no trailing unit.

Below: 3 compounds and their reported Num Ave Size (nm).
- CCCCC/C=C\C/C=C\CCCCCCCC(=O)OCC(COC(=O)CCCCCCC/C=C\C/C=C\CCCCC)OC(=O)CCC(CCCCCC)OC(=O)NCCN1CCCC1 (racemic) [Compound 50]: 76.57
- CCCCC/C=C\C/C=C\CCCCCCCC(=O)OCC(COC(=O)CCCCCCC/C=C\C/C=C\CCCCC)OC(=O)CCC(CCCCCCCC)OC(=O)NCCN1CCCC1 (stereo not shown) [Compound 51]: 80.57
- CCCCC/C=C\C/C=C\CCCCCCCC(=O)OCC(COC(=O)CCCCCCC/C=C\C/C=C\CCCCC)OC(=O)CCC(CCCCC)OC(=O)NCCN1CCCC1 (stereo not shown) [Compound 72]: 88.38

Field: next compound
# input compound: CCCCC/C=C\C/C=C\CCCCCCCC(=O)OCC(COC(=O)CCC(OCCCCCCCC)OCCCCCCCC)COC(=O)OCCCN(CC)CC (stereo not shown) [Compound 49, reference compound] ; wanted: its Num Ave Size (nm) 63.19

====

PROTOCOL: LNP average particle size and polydispersity by dynamic light scattering
Assay type: physicochemical
MEASUREMENT CONTEXT: LNP with the compound as amine lipid; Expt. 4; composition ratio (mol %) 50/9/38/3 for Cmpnd 49, 50/10/38.5/1.5 for the others
QUANTITY KIND: Z-Ave Size (nm)
The response must be a number in nm with no trailing unit.

- CCCCC/C=C\C/C=C\CCCCCCCC(=O)OCC(COC(=O)CCCCCCC/C=C\C/C=C\CCCCC)OC(=O)CCC(CCCCCCC)OC(=O)NCCN(C)CC (stereo not drawn) [Compound 73]: 95.81
- CCCCC/C=C\C/C=C\CCCCCCCC(=O)OCC(COC(=O)CCCCCCC/C=C\C/C=C\CCCCC)OC(=O)CCC(CCCCC)OC(=O)NCCN(C)CC (stereo not drawn) [Compound 69]: 108.90

Field: next compound
# input compound: CCCCC/C=C\C/C=C\CCCCCCCC(=O)OCC(COC(=O)CCCCCCC/C=C\C/C=C\CCCCC)OC(=O)CCC(CCCCCCCCCCCC)OC(=O)NCCN(C)CC (stereo not drawn) [Compound 7] ; wanted: its Z-Ave Size (nm) 87.61

====

PROTOCOL: LNP average particle size and polydispersity by dynamic light scattering
Assay type: physicochemical
MEASUREMENT CONTEXT: LNP with the compound as amine lipid; Expt. 1; composition ratio (mol %) 50/9/38/3 for Cmpnd 49, 50/10/38.5/1.5 for the others
Consider the following molecules and their measured Num Ave Size (nm) readings.
Units required after the number.

# input molecule: CCCCC/C=C\C/C=C\CCCCCCCC(=O)OCC(COC(=O)CCCCCCC/C=C\C/C=C\CCCCC)COC(=O)CCCC(CCCCCCCC)OC(=O)NCCN(C)CC (stereo not drawn) ; wanted: its Num Ave Size (nm) 99.29 nm

# input molecule: CCCCC/C=C\C/C=C\CCCCCCCC(=O)OCC(COC(=O)CCCCCCC/C=C\C/C=C\CCCCC)OC(=O)CCC(CCCCCCCCCCCC)OC(=O)OCCCN(C)C (stereo not drawn) ; wanted: its Num Ave Size (nm) 54.84 nm

# input molecule: CCCCC/C=C\C/C=C\CCCCCCCC(=O)OCC(COC(=O)CCCCCCCC(=O)OCCCCCCCCCCC)OC(=O)CCC(CCCCCCCC)OC(=O)NCCN(C)CC (stereo not drawn) ; wanted: its Num Ave Size (nm) 82.18 nm

# input molecule: CCCCC/C=C\C/C=C\CCCCCCCC(=O)OCC(COC(=O)CCCCCCC/C=C\C/C=C\CCCCC)COC(=O)CC(CCCCCCCC)OC(=O)NCCN(C)CC (stereo not drawn) ; wanted: its Num Ave Size (nm) 75.76 nm

# input molecule: CCCCC/C=C\C/C=C\CCCCCCCC(=O)OCC(COC(=O)CCC(OCCCCCCCC)OCCCCCCCC)COC(=O)OCCCN(CC)CC (stereo not drawn) [Compound 49, reference compound] ; wanted: its Num Ave Size (nm) 69.84 nm

# input molecule: CCCCC/C=C\C/C=C\CCCCCCCC(=O)OCC(COC(=O)CCCCCCC/C=C\C/C=C\CCCCC)OC(=O)CC(CCCCCCCC)OC(=O)NCCN(C)CC (stereo not drawn) ; wanted: its Num Ave Size (nm) 74.35 nm

====

Consider the following compounds and their measured Encapsulation (%) readings.
PROTOCOL: RNA encapsulation efficiency of LNP (Ribogreen fluorescence assay)
Format: physicochemical
MEASUREMENT CONTEXT: LNP with the compound as amine lipid; Expt. 6; composition ratio (mol %) 50/9/38/3 for Cmpnd 49, 50/10/38.5/1.5 for the others
The response must be a number in % with no trailing unit.

Below: 5 compounds and their reported Encapsulation (%).
* CCCCC/C=C\C/C=C\CCCCCCCC(=O)OCC(COC(=O)CCCCCCC/C=C\C/C=C\CCCCC)OC(=O)CC[C@H](CCCCCCCC)OC(=O)NCCN(C)CC [Compound 88] | 98
* CCCCC/C=C\C/C=C\CCCCCCCC(=O)OCC(COC(=O)CCCCCCC/C=C\C/C=C\CCCCC)OC(=O)CCC(CC(CC)CC)OC(=O)NCCN(C)CC (stereo not drawn) [Compound 103] | 91
* CCCCC/C=C\C/C=C\CCCCCCCC(=O)OCC(COC(=O)CCCCCCC/C=C\C/C=C\CCCCC)OC(=O)CC[C@@H](CCCCCCCC)OC(=O)NCCN(C)CC [Compound 87] | 98
* CCCCC/C=C\C/C=C\CCCCCCCC(=O)OCC(COC(=O)CCC(OCCCCCCCC)OCCCCCCCC)COC(=O)OCCCN(CC)CC (stereo not drawn) [Compound 49, reference compound] | 99
* CCCCC/C=C\C/C=C\CCCCCCCC(=O)OCC(COC(=O)CCCCCCC/C=C\C/C=C\CCCCC)OC(=O)C1(C(CCCCCCCC)OC(=O)NCCN(C)CC)CC1 (stereo not drawn) [Compound 86] | 98

# input compound: CCCCC/C=C\C/C=C\CCCCCCCC(=O)OCC(COC(=O)CCCCCCC/C=C\C/C=C\CCCCC)OC(=O)CCC(CCCCCCCC)OC(=O)NCCN(C)CC (stereo not drawn) [Compound 34] ; wanted: its Encapsulation (%) 98
